biological target: HLA-B*4403 (human); test: competition binding assay, purified HLA; conditions: remark: other sources report otherwise
MEASUREMENT LABEL: log10 IC50 (log10 of the value in nM)
Record value = log10 of IC50 given in nM.

List reported log10 IC50 for each of these binders:
1. KETELRKVKV [Her2/neu 716 …]
2. TELRKVKVL [Her2/neu 718 …]
3. FESMPNPEGRY [Her2/neu 279 …]
4. PETHLDMLRHL [Her2/neu 39 …]

[A]
1.18
0.40
1.85
1.85

List reported log10 IC50 for each of these binders:
1. LEDDDMGDL [Her2/neu 1009 LBDDDMGDL]
2. GERLPQPPICTI [Her2/neu 938 GB…]

[A]
2.95
-0.22
